Origin of measurements: PubChem BioAssay AID1159580

- assay: chemical genetic growth profiling, strain panel (AID 1159580);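 further: tested at 20 µM; growth read once vehicle control cultures reached saturation at 30 °C; lower values mean less growth of the strain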
- measurement.conditions: S. cerevisiae deletion strains, growth OD, locus YMR129W
The whole screen tested about 5,500 compounds, of which about 2,000 (36%) were called active. Not shown: some 18% with an inconclusive outcome. No stated cut-off is given here; in the data, active means normalized growth mostly below about 0.91 (no sharp cut-off); inconclusive means no clear call, values can overlap the other calls; inactive means mostly above about 0.92. The list shows a part of the results.
A correct response names exactly one class from Yes (active), No (inactive)

Here are 2 compounds together with their reported answers.
c1ccc([C@H]2CN3CCSC3=N2)cc1    No
CN1CCN(CCC=C2c3ccccc3Sc3ccc(S(=O)(=O)N(C)C)cc32)CC1    No

Request: State the result this test recorded for OCCN1CCN(CCCN2c3ccccc3Sc3ccc(C(F)(F)F)cc32)CC1 .
Response: No

Request: Let us now turn to CN1CCN(CCCN2c3ccccc3Sc3ccc(C(F)(F)F)cc32)CC1
Response: Yes

Request: Let us now turn to CN[C@@H]1[C@@H](O[C@H]2O[C@H](CO)[C@@H](N)[C@H](O)[C@H]2O)O[C@H]2C[C@@H](N)[C@H](O[C@H]3[C@H](O)[C@@H](O)[C@H](N)C[C@@H]3N)O[C@@H]2[C@@H]1O
Response: No
